Target: Mitogen-activated protein kinase 7 (Homo sapiens) (UniProt Q13164)
Sequence (Q13164 whole entry, looked up, the tested form may be a part): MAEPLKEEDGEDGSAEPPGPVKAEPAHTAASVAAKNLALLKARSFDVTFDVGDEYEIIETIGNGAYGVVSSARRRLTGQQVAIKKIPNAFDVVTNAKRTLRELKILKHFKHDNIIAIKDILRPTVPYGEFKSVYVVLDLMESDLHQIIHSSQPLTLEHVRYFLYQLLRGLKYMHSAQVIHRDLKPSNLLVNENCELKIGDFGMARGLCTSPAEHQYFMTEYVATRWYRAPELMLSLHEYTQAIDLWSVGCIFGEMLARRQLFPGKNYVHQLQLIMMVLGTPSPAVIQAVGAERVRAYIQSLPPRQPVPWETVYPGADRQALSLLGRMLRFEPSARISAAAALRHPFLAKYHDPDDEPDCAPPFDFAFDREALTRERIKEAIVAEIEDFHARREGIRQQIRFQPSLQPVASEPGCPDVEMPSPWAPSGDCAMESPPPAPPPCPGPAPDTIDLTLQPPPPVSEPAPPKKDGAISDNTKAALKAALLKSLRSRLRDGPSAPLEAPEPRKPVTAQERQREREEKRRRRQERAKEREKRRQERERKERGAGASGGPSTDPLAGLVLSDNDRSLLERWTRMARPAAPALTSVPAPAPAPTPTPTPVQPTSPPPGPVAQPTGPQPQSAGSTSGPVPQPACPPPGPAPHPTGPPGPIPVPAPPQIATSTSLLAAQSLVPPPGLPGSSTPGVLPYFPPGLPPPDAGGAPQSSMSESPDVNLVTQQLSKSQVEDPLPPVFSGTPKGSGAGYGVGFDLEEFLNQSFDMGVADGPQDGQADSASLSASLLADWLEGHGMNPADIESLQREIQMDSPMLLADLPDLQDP
Experiment: Gal4-ERK5 driven luciferase induction – cell-based, HTS, primary screen (AID 1508626);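 also: luciferase driven by Gal4-ERK5 fusion binding five Gal4 sites before minimal TATA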
Details: HeLa Gal4-ERK5 transactivation, 18 h, at 5 µM, stronger effect = higher value
The source made the active and inactive calls.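 The calls were made as follows: active = luciferase signal above three times the same-plate solvent-only control wells; inactive = the rest.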
Quick reference: luciferase signal of the listed items.

structureString | studyTarget | luciferase signal
COC(=O)N/N=C/c1c[n+]([O-])c2ccccc2[n+]1[O-] | Mitogen-activated protein kinase 7 (Homo sapiens) (UniProt Q13164) | 172 AU (inactive)
NCCS(=O)(=O)O | Mitogen-activated protein kinase 7 (Homo sapiens) (UniProt Q13164) | 80 AU (inactive)
CN(C)c1ccc(C(=C2C=CC(=[N+](C)C)C=C2)c2ccc(N(C)C)cc2)cc1 | Mitogen-activated protein kinase 7 (Homo sapiens) (UniProt Q13164) | 104 AU (inactive)
NC(N)=N/N=C/c1c(Cl)cccc1Cl | Mitogen-activated protein kinase 7 (Homo sapiens) (UniProt Q13164) | 52 AU (inactive)
N[C@@H](Cc1ccc(O)c(O)c1)C(=O)O | Mitogen-activated protein kinase 7 (Homo sapiens) (UniProt Q13164) | 72 AU (inactive)

// switching to the query molecule
Fill in the blank: the reported luciferase signal of `CN(C/C=C/C#CC(C)(C)C)Cc1cccc2ccccc12` is ____.
52 AU (inactive)
